# Tested on: CD2F1 mice, L1210 leukemia ip, survival T/C
# protocolText: NCI In Vivo Anticancer Drug Screen. Data for tumor model L1210 Leukemia (intraperitoneal) in CD2F1 (CDF1) mice
# experimentalParameters: endpoint: mean survival time; dose: 100.0 mg/kg/injection; schedule: Q04DX003 (ip); vehicle: saline sonified; higher = longer survival
Toxic doses and inconclusive results are not listed.
Entries and their measured T/C follow.
endpointLabel: T/C

# compound, measuredTarget, reportedMeasurement
data = [
    ("Clc1nc(Cl)c(Nc2ccn[nH]2)nc1Cl", "CD2F1 mice, L1210 leukemia ip, survival T/C", "100 % of control"),
    ("CC(=O)c1ccc2c(c1)Cc1cc(C(C)=O)ccc1-2", "CD2F1 mice, L1210 leukemia ip, survival T/C", "96 % of control"),
    ("CC(C)(CC(=O)O)c1ccccc1", "CD2F1 mice, L1210 leukemia ip, survival T/C", "97 % of control"),
    ("O=[N+]([O-])c1ccc(/C=N\\Nc2ccc([N+](=O)[O-])cn2)cc1", "CD2F1 mice, L1210 leukemia ip, survival T/C", "89 % of control"),
    ("COc1cc(C2c3cc4c(cc3C(O)C(CO)C2CO)OCO4)cc(OC)c1OC (stereo unspecified)", "CD2F1 mice, L1210 leukemia ip, survival T/C", "107 % of control"),
    ("CCOc1ccncc1[N+](=O)[O-]", "CD2F1 mice, L1210 leukemia ip, survival T/C", "95 % of control"),
]
